Molecular target: NAD-dependent protein deacetylase sirtuin-1 (Homo sapiens)
Assay: Inhibition of recombinant N-terminal tagged human SIRT1 expressed in Escherichia coli at 100 uM using Fluor De Lys SIRT1 as substrate preincubated for 30 mins followed by substrate addition and measured after 1 hr in presence of NAD+ by fluorescence assay relative to control
Details: time 90.0 min

| STRUCTURE_NOTATION | UNIT_NAME | inhibition |
| --- | --- | --- |
| CC(C)N1CCN(C(=O)c2cccc(Oc3ccccc3)c2)CC1 | % | 48.1 |
| O=C(c1cccc(Oc2ccccc2)c1)N1CCc2ccccc2C1 | % | 56.5 |
| ON=C(c1cccc(Oc2ccccc2)c1)N1CCc2ccccc2C1 | % | 47.2 |
| O=C(Nc1ccc2ccccc2c1)c1cccc(Oc2ncccn2)c1 | % | 36.1 |
| O=C(c1ccc(Oc2ccccc2)cc1)N1CCc2ccccc2C1 | % | 21.5 |
| CC(=O)c1ccc(NC(=O)c2ccc(Oc3ccccc3)cc2)cc1 | % | 36.1 |
| NC(=O)c1ccc(NC(=O)c2ccc(Oc3ccccc3)cc2)cc1 | % | 46 |
